Source: ChEMBL document CHEMBL3864123

# experiment-notes: Inhibition of Escherichia coli LpxA after 15 mins by fluorescence polarization assay
observable: pKd
// pKd is dimensionless: -log10 of concentration (M)

Endpoint output: pKd of H-TNLYMLPKWDIP-NH2 . Value?
4.70
